Please provide measured Emax for the entries that follow.
- target: UniProt:P41594
- Sequence (P41594 other isoform, or with tags, fused parts or gaps): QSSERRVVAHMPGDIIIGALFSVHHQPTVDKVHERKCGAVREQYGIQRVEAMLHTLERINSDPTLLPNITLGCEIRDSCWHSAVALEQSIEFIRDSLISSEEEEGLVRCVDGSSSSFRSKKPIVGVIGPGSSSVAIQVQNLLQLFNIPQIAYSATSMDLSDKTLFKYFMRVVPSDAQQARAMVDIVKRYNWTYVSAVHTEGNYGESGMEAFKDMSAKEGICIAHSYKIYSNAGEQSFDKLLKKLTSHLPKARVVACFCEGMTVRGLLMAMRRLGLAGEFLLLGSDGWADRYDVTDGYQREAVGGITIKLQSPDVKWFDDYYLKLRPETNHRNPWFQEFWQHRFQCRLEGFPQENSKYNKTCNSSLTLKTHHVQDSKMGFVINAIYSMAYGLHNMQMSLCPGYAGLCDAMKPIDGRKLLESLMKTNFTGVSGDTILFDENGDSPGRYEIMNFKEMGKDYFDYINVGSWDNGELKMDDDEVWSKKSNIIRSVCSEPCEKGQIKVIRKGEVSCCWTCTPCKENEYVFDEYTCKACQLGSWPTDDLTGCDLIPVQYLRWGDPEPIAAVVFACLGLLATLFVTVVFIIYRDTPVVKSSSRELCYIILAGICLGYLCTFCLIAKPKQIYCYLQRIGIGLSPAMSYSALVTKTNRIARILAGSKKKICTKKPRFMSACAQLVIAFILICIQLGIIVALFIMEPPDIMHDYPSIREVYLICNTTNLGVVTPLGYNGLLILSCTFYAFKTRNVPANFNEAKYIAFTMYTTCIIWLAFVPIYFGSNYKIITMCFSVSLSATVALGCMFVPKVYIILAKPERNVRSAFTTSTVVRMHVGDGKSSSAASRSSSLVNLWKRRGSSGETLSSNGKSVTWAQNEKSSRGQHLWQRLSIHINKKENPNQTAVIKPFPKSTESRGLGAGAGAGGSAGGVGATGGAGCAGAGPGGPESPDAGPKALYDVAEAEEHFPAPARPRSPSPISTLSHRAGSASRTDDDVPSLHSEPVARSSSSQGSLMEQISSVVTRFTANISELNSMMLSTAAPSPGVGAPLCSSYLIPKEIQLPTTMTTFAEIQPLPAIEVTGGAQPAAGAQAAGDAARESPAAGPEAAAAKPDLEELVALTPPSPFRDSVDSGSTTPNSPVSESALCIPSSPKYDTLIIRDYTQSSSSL
- assay.notes: Intracellular Ca2+ mobilization assay (mGlu5 PAM)
- Format: cell-based
- cond: maximal response in % of the maximal stimulatory effect obtained with saturating concentrations of L-glutamate; read-out: Eff. (%)
Report as a plain number; the unit % is understood.

Report Emax on UniProt:P41594 for this entry: CN1C(=O)N(c2ccc(C#Cc3cc(F)ccc3F)cn2)CCC1(C)C 79

Recall the reported Emax of CC1(C)CN(c2ccc(C#Cc3cccnc3)cn2)C(=O)O1 on UniProt:P41594 and write it down. 39

Determine reported Emax for O=C1O[C@H]2CCC[C@H]2N1c1ccc(C#Cc2ccccc2)cn1 (racemic) ; test system: UniProt:P41594. 74

Using UniProt:P41594 as the test system, report measured Emax of CCN1C(=O)N(c2ncc(C#Cc3cccc(F)c3)cn2)CC1(C)C . 58

Check UniProt:P41594 data and give Emax for CN1C(=O)N(c2ncc(C#Cc3ccccc3)cn2)CCC1(C)C . 74

src = patent US9315498B2
